Overview of reported log10 of IC50 across a group of compounds:
assay.system: NR2B (Rattus norvegicus (Rat), UniProt Q00960)
Sequence (Q00960 27-1482, other chains not shown): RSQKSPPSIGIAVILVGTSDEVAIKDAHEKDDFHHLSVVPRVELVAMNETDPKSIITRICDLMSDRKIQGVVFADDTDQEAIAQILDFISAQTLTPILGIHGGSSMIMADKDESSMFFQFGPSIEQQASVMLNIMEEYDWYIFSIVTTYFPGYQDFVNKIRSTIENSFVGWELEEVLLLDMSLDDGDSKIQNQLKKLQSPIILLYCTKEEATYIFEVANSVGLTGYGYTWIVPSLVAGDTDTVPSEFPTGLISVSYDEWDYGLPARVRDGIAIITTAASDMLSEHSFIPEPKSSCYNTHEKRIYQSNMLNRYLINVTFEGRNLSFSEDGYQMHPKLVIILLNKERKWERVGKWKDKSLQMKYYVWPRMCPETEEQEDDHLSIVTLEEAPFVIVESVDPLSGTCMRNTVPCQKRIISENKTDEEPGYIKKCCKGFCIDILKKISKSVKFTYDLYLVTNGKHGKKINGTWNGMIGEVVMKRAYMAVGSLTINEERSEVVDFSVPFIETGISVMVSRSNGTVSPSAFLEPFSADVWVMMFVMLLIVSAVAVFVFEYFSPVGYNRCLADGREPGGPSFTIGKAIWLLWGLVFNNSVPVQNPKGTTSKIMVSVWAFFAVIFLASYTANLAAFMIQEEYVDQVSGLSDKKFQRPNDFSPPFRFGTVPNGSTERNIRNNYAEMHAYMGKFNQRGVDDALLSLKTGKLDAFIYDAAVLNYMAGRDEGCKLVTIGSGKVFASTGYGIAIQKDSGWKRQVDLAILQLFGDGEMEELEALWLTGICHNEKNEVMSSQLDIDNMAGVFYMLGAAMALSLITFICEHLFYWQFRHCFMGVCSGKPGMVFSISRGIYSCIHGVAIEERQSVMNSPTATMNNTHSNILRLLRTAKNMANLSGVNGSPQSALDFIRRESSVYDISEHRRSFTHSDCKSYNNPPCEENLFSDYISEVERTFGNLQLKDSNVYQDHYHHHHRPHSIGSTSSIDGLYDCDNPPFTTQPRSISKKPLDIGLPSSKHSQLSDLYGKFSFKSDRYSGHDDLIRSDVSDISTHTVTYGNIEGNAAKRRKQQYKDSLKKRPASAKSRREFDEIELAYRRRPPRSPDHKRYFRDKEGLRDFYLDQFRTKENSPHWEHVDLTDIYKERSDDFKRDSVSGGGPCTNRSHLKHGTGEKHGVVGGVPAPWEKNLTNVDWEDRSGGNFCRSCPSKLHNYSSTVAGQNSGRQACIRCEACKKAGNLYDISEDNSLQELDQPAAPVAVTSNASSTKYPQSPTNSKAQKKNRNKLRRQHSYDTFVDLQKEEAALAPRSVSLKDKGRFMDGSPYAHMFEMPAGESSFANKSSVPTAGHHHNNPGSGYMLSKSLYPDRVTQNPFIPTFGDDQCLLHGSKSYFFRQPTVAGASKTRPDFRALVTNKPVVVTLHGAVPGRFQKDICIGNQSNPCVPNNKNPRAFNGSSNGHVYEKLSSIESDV
assay.comment: NR2B rat cortical neuron calcium influx assay
condition.notes: rat cortical neurons, glutamate and glycine stimulated calcium influx
Units before log transform: nM; reported quantity: IC50; transform: log10.

INSERT INTO results (compound, quantitative_readout) VALUES
  ('O=C1Nc2c(F)cc([C@@H](O)CN3C[C@H]4C[C@H](Oc5ccccc5)C[C@@]4(O)C3)cc2CO1 (single isomer, unassigned) [Example 33A]', 0.69),
  ('O=C1CCc2cc([C@H](O)CN3C[C@H]4C[C@H](Oc5ccccc5F)C[C@@]4(O)C3)cc(F)c2N1 (single isomer, unassigned)', 3.03),
  ('CC1(C)Cc2cc([C@@H](O)CN3C[C@H]4C[C@H](Oc5ccccc5)C[C@@]4(O)C3)ccc2NC1=O (single isomer, unassigned) [Example 11A]', 0.28);

Summary for this compound, O=C1CCc2cc([C@H](O)CN3C[C@H]4C[C@H](Oc5ccc(F)cc5F)C[C@@]4(O)C3)ccc2N1 (single isomer, unassigned) [Example 25B] : log10 of IC50 is 1.15

Summary for this compound, `O=C1CCc2cc([C@@H](O)CN3C[C@@H]4C[C@@H](Oc5ccccc5)[C@@H](O)[C@]4(O)C3)ccc2N1` : log10 of IC50 is 3.48

Summary for this compound, O=C1Nc2c(F)cc([C@H](O)CN3C[C@H]4C[C@H](Oc5ccccc5F)C[C@@]4(O)C3)cc2CO1 (single isomer, unassigned) [Example 35B] : log10 of IC50 is 0.11

Summary for this compound, O=c1[nH]c2ccc([C@H](O)CN3C[C@H]4C[C@H](Oc5ccccc5F)C[C@@]4(O)C3)cc2s1 (single isomer, unassigned) [Example 18B] : log10 of IC50 is -1.92

Summary for this compound, O=C1Nc2ccc([C@H](O)CN3C[C@H]4C[C@H](Oc5ccccc5)C[C@@]4(O)C3)cc2CS1 (single isomer, unassigned) [Example 14B] : log10 of IC50 is -0.74

Summary for this compound, O=C1CCc2c(ccc([C@H](O)CN3C[C@H]4C[C@H](Oc5ccccc5)C[C@@]4(O)C3)c2F)N1 (single isomer, unassigned) : log10 of IC50 is 0.61

====

assay.system: NR2B (Rattus norvegicus (Rat))
assay.comment: NR2B rat cortical neuron calcium influx assay
condition.notes: rat cortical neurons, glutamate and glycine stimulated calcium influx
Output rule met for records whose IC50 is lower than 6 nM, rule not met for records at or above 6 nM.

INSERT INTO results (molecule, assigned_class) VALUES
  ('O=C1Nc2ccc([C@@H](O)CN3C[C@H]4C[C@H](Oc5ccccc5F)C[C@@]4(O)C3)cc2CCO1 (single isomer, unassigned) [Example 12A]', 'rule met');

State whether 6 nM exceeds IC50 recorded for O=c1[nH]c2c(F)cc([C@@H](O)CN3C[C@H]4C[C@H](Oc5ccccc5)C[C@@]4(O)C3)cc2cc1F (single isomer, unassigned) [Example 20A] .
rule met

State whether 6 nM exceeds IC50 recorded for O=C1CCc2cc([C@H](O)CN3C[C@H]4C[C@H](Oc5cccc(F)c5)C[C@@]4(O)C3)ccc2N1 (single isomer, unassigned) [Example 23B] .
rule not met

State whether 6 nM exceeds IC50 recorded for O=C1Nc2c(F)cc([C@H](O)CN3C[C@H]4C[C@H](Oc5ccccc5)C[C@@]4(O)C3)cc2CS1 (single isomer, unassigned) [Example 16B] .
rule met

State whether 6 nM exceeds IC50 recorded for O=C1CCCc2cc([C@@H](O)CN3C[C@H]4C[C@H](Oc5ccccc5)C[C@@]4(O)C3)ccc2N1 (single isomer, unassigned) [Example 7A] .
rule not met

State whether 6 nM exceeds IC50 recorded for O=C1Nc2c(F)cc([C@H](O)CN3C[C@H]4C[C@H](Oc5ccccc5)C[C@@]4(O)C3)c(F)c2CO1 (single isomer, unassigned) [Example 37B] .
rule not met
